B1: Mineralocorticoid receptor, residues 600 to 675; numbered along this chain, P08235 (parent)
chain: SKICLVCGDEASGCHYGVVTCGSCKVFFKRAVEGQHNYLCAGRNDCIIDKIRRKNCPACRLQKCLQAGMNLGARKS

Variants of: B1
EXPERIMENTAL DETAILS: abundance fitness (aPCA) (normalised: wild type 0, dead -1); higher = more abundant; growth selection in yeast, the domain comes from the species named
MEASUREMENT CONTEXT: Homo sapiens
Recorded abundance fitness values for a group of variants are listed next.
METRIC NAME: abundance fitness

In [3]: df
Out[3]:
                            monomer_sequence     val
 0  SKICLVCGDEASGVHYGVVTCGSCKVFFKRAVEGQHNYLCAGRNDCIIDKIRRKNCPACRLQKCLQAGMNLGARKS [C14V]  -0.008
 1  SKICLVCGDQASGCHYGVVTCGSCKVFFKRAVEGQHNYLCAGRNDCIIDKIRRKNCPACRLQKCLQAGMNLGARKS [E10Q]   0.071
 2  SKICLVCGDEASGCHYGVVTCGSCKVFFKRAVEGQHNYLCAGRNDCIIDKIRRKNCPACRLQKCLQAGMNLGATKS [R74T]   0.138
 3  SKICLVCGDEASGCHYGVVTCGSCKVFFKRAVEGQHNYLCAGRNDCIIDKIRRKNCPACRLQKCLQAGMNLGARAS [K75A]   0.059
 4  SKICFVCGDEASGCHYGVVTCGSCKVFFKRAVEGQHNYLCAGRNDCIIDKIRRKNCPACRLQKCLQAGMNLGARKS [L5F]  -0.027
 5  SKICLVCGDEASGCHYGVVTCGSCKVFFKRAVEGQHNYLCSGRNDCIIDKIRRKNCPACRLQKCLQAGMNLGARKS [A41S]  -0.077
 6  SKICLVCGDEASGCHYFVVTCGSCKVFFKRAVEGQHNYLCAGRNDCIIDKIRRKNCPACRLQKCLQAGMNLGARKS [G17F]  -0.121
 7  SKICLVCGDEASGCHYGVVTCGSCKVFFKRAVEGQHNYLCAGRNDCIIDKIRRKNCPACRLQKWLQAGMNLGARKS [C64W]  -0.523
 8  SKICLVCGDEASGCHYGVVTCGSCKVFFKRAVEGQHNYLCAGRNDCIIDKIRRKNCPACRHQKCLQAGMNLGARKS [L61H]  -0.233
 9  SKICLVCGDEASGCHYGVVTCGSCKVFFKRAVEGQHNYLCAGRNDCIIDKIRRKNCPACRLQKCLQALMNLGARKS [G68L]  -0.484
10  SKICLVCGDEASGCHYGVVTCGSEKVFFKRAVEGQHNYLCAGRNDCIIDKIRRKNCPACRLQKCLQAGMNLGARKS [C24E]   -1.03
11  SKICLVCGDEASGCHYGVVTCGSCKVFFKRAVEGQHNYLCAGRNDCIIDKIRRKNCPACRLPKCLQAGMNLGARKS [Q62P]  -0.887
12  SKICLVCGDEASGCHYGVVTCGSCKVFFKRAVEGQHNYLCAGRNDCIIDKIRRKNCPACRLQKCLQAGMNLMARKS [G72M]  -0.042
13  SKICLVWGDEASGCHYGVVTCGSCKVFFKRAVEGQHNYLCAGRNDCIIDKIRRKNCPACRLQKCLQAGMNLGARKS [C7W]  -0.765
14  SKICLVCGDEASGCHYGVVTCGSCKVFFKRAVEGQHNYLCAGRNDCIIDKIRRKNCPACRLQKCLQAQMNLGARKS [G68Q]  -0.153
15  SKICLVCGDEASGCHYGVVTCGSCKVFFKRAVEGQHNYLCAGRNDCIIDKIRRKNCPACRLQKSLQAGMNLGARKS [C64S]  -0.113
16  SKICLVCGDEASGGHYGVVTCGSCKVFFKRAVEGQHNYLCAGRNDCIIDKIRRKNCPACRLQKCLQAGMNLGARKS [C14G]  -0.077
17  PKICLVCGDEASGCHYGVVTCGSCKVFFKRAVEGQHNYLCAGRNDCIIDKIRRKNCPACRLQKCLQAGMNLGARKS [S1P]   -0.13
18  SKICLVCGDEASGCHYGVVTCGSCKVFFKRAVEGQYNYLCAGRNDCIIDKIRRKNCPACRLQKCLQAGMNLGARKS [H36Y]  -0.043
19  SKICLVCGDEASGCHYGVVTCGSCKVFFKRAVKGQHNYLCAGRNDCIIDKIRRKNCPACRLQKCLQAGMNLGARKS [E33K]   0.044
20  SRICLVCGDEASGCHYGVVTCGSCKVFFKRAVEGQHNYLCAGRNDCIIDKIRRKNCPACRLQKCLQAGMNLGARKS [K2R]  -0.083
21  SKICLVCGDEASGCHYGVVTFGSCKVFFKRAVEGQHNYLCAGRNDCIIDKIRRKNCPACRLQKCLQAGMNLGARKS [C21F]  -0.515
22  SKICLVCGDEASGCHYGVVTCGSCKVFFKRAVEGQHNYLCAGRNDCIIDKICRKNCPACRLQKCLQAGMNLGARKS [R52C]  -0.043
23  SKICLVCGDEASGCHYGVVTCGSCKVFFKRAVEGQHNYLCAGRNQCIIDKIRRKNCPACRLQKCLQAGMNLGARKS [D45Q]   0.016
24  SKICLVCGDEASGCHYGVVTCGSCKVFFKRAVEGQHNYLCAGRNDCIIDKIRRKNCPACRLQKCLQLGMNLGARKS [A67L]  -0.002
25  SKICLVCGDEASGCHYGVKTCGSCKVFFKRAVEGQHNYLCAGRNDCIIDKIRRKNCPACRLQKCLQAGMNLGARKS [V19K]   0.007
26  SKICLVCGDEASGCHYGVVTCGSCKVFFKRAVEGQHNYLCAGRNDCIIDKIRSKNCPACRLQKCLQAGMNLGARKS [R53S]  -0.095
27  SKICLVCGDEASGCHYGVVTCGSCKVFFKRAVEGQHNYLCAGRNDCIIDKIRRKNCPACRLQKDLQAGMNLGARKS [C64D]  -0.716
28  SKICLVCGDEASGCHYGVVTCGSCKVFFKRAVEGEHNYLCAGRNDCIIDKIRRKNCPACRLQKCLQAGMNLGARKS [Q35E]   0.069
29  SKICLVCGDEASGCHYGVVTCGSCKVFFKRAVECQHNYLCAGRNDCIIDKIRRKNCPACRLQKCLQAGMNLGARKS [G34C]  -0.151
30  SKICLVCGDEASGCHYGVVTCGSCKVFFKRAVEGQHNSLCAGRNDCIIDKIRRKNCPACRLQKCLQAGMNLGARKS [Y38S]  -0.049
31  SKICLVCGDEASGCHYGVVTCGSCKVFFKRAVEGQHNYLCAGRNDCIIRKIRRKNCPACRLQKCLQAGMNLGARKS [D49R]  -0.287
32  SKICLVCGDEASGHHYGVVTCGSCKVFFKRAVEGQHNYLCAGRNDCIIDKIRRKNCPACRLQKCLQAGMNLGARKS [C14H]  -0.003
33  SKICLVCGDEASGCHYGVVTCGSCKVFFKRAVEGQHNYLCAGRSDCIIDKIRRKNCPACRLQKCLQAGMNLGARKS [N44S]   -0.02
34  SKICLVCGDEASGCHYGVVTCGSCKVFFKRAVEGQHNYLCAGRNDCIIPKIRRKNCPACRLQKCLQAGMNLGARKS [D49P]  -0.327
35  SKYCLVCGDEASGCHYGVVTCGSCKVFFKRAVEGQHNYLCAGRNDCIIDKIRRKNCPACRLQKCLQAGMNLGARKS [I3Y]  -0.027
36  SKICLVCGDEASGCHYGVVTCGSCKVFFKRAVEGQHNYLCAGRNDCIIDKIRGKNCPACRLQKCLQAGMNLGARKS [R53G]  -0.045
37  SKICLVCGDEASGCHYGVVTCGSCKVFFKRAEEGQHNYLCAGRNDCIIDKIRRKNCPACRLQKCLQAGMNLGARKS [V32E]  -0.004
38  SKICLVCGDEASGCHYGVVTCGSCKVFFKRAVEGQHNYLCAGRNDCIIDKIRRKNCPACRLQKCLQAMMNLGARKS [G68M]  -0.211
39  SKICLVCGDEASGCHYGVVTCGSCKVFFKRAVEGQHNGLCAGRNDCIIDKIRRKNCPACRLQKCLQAGMNLGARKS [Y38G]  -0.164
